Tested Target: pSLP76 (Phospho-SLP-76 (Ser376)), Jurkat E6-1 cells (Homo sapiens)
Construct: read-out phospho-SLP-76 (Ser376) HTRF
Sequence (Q92918 whole entry): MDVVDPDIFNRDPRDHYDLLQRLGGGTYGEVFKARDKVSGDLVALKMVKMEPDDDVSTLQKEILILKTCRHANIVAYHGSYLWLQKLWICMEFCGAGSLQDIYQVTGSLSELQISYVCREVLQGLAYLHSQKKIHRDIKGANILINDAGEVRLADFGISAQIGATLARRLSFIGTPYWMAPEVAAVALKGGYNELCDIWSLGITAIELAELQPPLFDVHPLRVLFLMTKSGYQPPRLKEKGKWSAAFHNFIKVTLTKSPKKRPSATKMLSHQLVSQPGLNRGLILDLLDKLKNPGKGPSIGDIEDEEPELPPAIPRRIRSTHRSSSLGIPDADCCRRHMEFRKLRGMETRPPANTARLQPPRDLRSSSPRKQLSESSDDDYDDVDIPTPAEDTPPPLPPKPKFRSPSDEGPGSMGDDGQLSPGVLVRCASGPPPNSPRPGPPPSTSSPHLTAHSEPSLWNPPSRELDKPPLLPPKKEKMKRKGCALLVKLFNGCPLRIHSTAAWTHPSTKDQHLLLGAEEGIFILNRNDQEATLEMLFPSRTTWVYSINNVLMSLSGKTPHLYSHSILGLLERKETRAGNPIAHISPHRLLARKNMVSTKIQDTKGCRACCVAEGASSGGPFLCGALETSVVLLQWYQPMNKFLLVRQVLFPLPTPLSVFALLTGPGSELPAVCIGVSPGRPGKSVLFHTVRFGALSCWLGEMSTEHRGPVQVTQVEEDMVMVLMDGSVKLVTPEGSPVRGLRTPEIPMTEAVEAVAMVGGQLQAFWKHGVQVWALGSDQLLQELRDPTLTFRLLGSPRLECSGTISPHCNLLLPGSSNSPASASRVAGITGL
Experiment: Phospho-SLP-76 (Ser376) HTRF Assay in Jurkat E6-1 cells
Condition Notes: compound 4 hours, then anti-CD3 20 minutes
Observation Type: IC50

Solved entries (count: 5):
{"Compound": "COc1cccn2c(-c3cc4c(c5c(=O)[nH]ccc35)Nc3ccc(N5CCOCC5)cc3C4(C)C)cnc12", "Tested Target": "pSLP76 (Phospho-SLP-76 (Ser376)), Jurkat E6-1 cells (Homo sapiens)", "IC50": "57.5 nM"}
{"Compound": "COc1cccc2c(-c3cc4c(c5c(=O)[nH]ccc35)Nc3ccc(N5CCOCC5)cc3C4(C)C)cnn12", "Tested Target": "pSLP76 (Phospho-SLP-76 (Ser376)), Jurkat E6-1 cells (Homo sapiens)", "IC50": "103 nM"}
{"Compound": "COc1cccn2c(-c3cc4c(c5c3CNC5=O)Nc3ccc(N5CCOCC5)cc3C4(C)C)cnc12", "Tested Target": "pSLP76 (Phospho-SLP-76 (Ser376)), Jurkat E6-1 cells (Homo sapiens)", "IC50": "42.7 nM"}
{"Compound": "COc1cccn2c(-c3cc4c(c5c3CCNC5=O)Nc3ccc(N5CCOCC5)cc3C4(C)C)cnc12", "Tested Target": "pSLP76 (Phospho-SLP-76 (Ser376)), Jurkat E6-1 cells (Homo sapiens)", "IC50": "24.4 nM"}
{"Compound": "Cc1ccn2c(-c3cc4c(c5c3CNC5=O)Nc3ccc(N5CCOCC5)cc3C4(C)C)cnc2c1F", "Tested Target": "pSLP76 (Phospho-SLP-76 (Ser376)), Jurkat E6-1 cells (Homo sapiens)", "IC50": "73.3 nM"}

# lookup: IC50 of Cc1ccn2c(-c3cc4c(c5c3CNC5=O)Nc3ccc(N5CCOC(C(C)(C)O)C5)cc3C4(C)C)cnc2c1F (stereo not shown) 57.8 nM

# lookup: IC50 of COc1ccnn2c(-c3cc4c(c5c3CNC5=O)Nc3ccc(N5CCOCC5)cc3C4(C)C)cnc12 58.8 nM
